Entries and their phage ELISA signal ratio
- Test Target: T1, TDRD1 261-449 TUDOR (domain begin residue: 261, domain end residue: 449), Q9BXT4
- T1 chain: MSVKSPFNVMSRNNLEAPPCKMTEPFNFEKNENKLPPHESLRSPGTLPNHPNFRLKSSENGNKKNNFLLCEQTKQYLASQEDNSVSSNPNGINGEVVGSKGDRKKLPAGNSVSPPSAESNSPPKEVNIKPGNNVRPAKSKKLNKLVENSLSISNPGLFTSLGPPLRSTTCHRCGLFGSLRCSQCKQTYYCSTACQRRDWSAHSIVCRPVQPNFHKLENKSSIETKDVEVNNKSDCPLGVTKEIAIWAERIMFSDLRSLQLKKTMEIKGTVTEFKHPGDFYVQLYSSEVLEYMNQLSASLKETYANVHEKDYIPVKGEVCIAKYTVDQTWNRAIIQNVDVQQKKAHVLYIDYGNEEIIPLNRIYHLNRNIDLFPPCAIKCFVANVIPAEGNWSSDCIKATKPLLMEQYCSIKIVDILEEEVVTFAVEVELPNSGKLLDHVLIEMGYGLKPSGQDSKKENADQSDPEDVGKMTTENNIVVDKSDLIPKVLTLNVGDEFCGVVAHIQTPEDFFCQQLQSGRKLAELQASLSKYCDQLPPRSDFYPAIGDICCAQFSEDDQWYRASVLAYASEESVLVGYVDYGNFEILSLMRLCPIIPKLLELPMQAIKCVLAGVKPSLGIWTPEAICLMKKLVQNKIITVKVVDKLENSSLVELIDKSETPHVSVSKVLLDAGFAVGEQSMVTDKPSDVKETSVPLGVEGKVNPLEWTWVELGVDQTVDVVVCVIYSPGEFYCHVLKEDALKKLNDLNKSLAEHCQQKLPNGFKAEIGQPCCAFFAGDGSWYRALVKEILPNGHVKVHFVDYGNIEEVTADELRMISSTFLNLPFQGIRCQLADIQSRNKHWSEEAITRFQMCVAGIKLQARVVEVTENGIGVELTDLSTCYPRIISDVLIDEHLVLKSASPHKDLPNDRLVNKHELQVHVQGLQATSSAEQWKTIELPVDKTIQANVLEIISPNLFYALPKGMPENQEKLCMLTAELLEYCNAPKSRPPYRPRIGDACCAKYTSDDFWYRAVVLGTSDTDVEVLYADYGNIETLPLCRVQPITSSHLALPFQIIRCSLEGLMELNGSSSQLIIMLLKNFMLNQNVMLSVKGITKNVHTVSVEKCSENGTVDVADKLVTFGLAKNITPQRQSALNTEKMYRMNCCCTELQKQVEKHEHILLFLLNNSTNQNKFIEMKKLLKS
- Test Protocol: phage ELISA signal ratio (GST-PRM binding over GST background); higher = stronger binding of peptide-phage to the PRM
Quantity Kind: phage ELISA signal ratio

[
  {
    "Binder": "DYMSHLFDTMSGVQFQ",
    "Recorded Result": 8.02
  },
  {
    "Binder": "EMHWMDIWDSLLPESK",
    "Recorded Result": 7.87
  },
  {
    "Binder": "WNQWQEWTTDHGVLLE",
    "Recorded Result": 7.12
  },
  {
    "Binder": "ELWQHWDMWNVEEPEF",
    "Recorded Result": 7.88
  },
  {
    "Binder": "MPLHEWEAGWPWEVVG",
    "Recorded Result": 7.35
  }
]
